# System: Panc1
# Test Summary: MTT assay (cytotoxicity), Panc1
# Assay type: cell-based
# Condition: Homo sapiens, PANC-1, 72 h, drug concentration causing a 50% decrease in cell population
Reported log10 of IC50 values follow for various molecules
Each number you see is log10 of IC50, and the unit inside the log is nM.

Answered examples (5):
Structure Smiles String: O=c1onc(-c2ccccc2F)n1-c1ccccc1-c1nc(-c2ccccc2F)no1
log10 of IC50: 3.50
--
Structure Smiles String: Cc1ccc(-c2noc(-c3ccccc3-n3c(-c4ccc(C)cc4)noc3=O)n2)cc1
log10 of IC50: 2.23
--
Structure Smiles String: COc1cc(-c2nc(-c3ccccc3Cl)no2)c(-n2c(-c3ccccc3Cl)noc2=O)cc1OC
log10 of IC50: 3.03
--
Structure Smiles String: O=c1onc(-c2ccc(Cl)cc2)n1-c1ccccc1-c1nc(-c2ccc(Cl)cc2)no1
log10 of IC50: 3.18
--
Structure Smiles String: O=c1onc(-c2ccc(F)cc2)n1-c1ccccc1-c1nc(-c2ccc(F)cc2)no1
log10 of IC50: 3.51

Now take the following molecule into account.
// field: log10 of IC50; key: `O=c1onc(-c2ccccc2)n1-c1ccccc1-c1nc(-c2ccccc2)no1` ; value = 3.33

---

# System: SKOV3
# Test Summary: MTT assay (cytotoxicity), SKOV3
# Type: cell-based
# Condition: Homo sapiens, SK-OV-3, 72 h, drug concentration causing a 50% decrease in cell population
Reported pIC50 values follow for various compounds
pIC50 is defined as minus the log10 of a concentration measured in mol/L.

Answered examples (3):
Compound: Cc1ccc(-c2noc(-c3ccccc3-n3c(-c4ccc(C)cc4)noc3=O)n2)cc1 [KJA03]
System Under Test: SKOV3
Value: 6.51
--
Compound: O=c1onc(-c2ccccc2F)n1-c1ccccc1-c1nc(-c2ccccc2F)no1 [KJA17]
System Under Test: SKOV3
Value: 4.59
--
Compound: O=c1onc(-c2ccccc2)n1-c1ccccc1-c1nc(-c2ccccc2)no1 [KJA01]
System Under Test: SKOV3
Value: 5.24

// field: pIC50; key: COc1cc(-c2nc(-c3ccccc3Cl)no2)c(-n2c(-c3ccccc3Cl)noc2=O)cc1OC [KJA10] ; value = 5.49

// field: pIC50; key: O=c1onc(-c2ccc(F)cc2)n1-c1ccccc1-c1nc(-c2ccc(F)cc2)no1 [KJA04] ; value = 4.68

// field: pIC50; key: O=c1onc(-c2ccc(Cl)cc2)n1-c1ccccc1-c1nc(-c2ccc(Cl)cc2)no1 [KJA02] ; value = 4.95

---

# System: Panc1
# Test Summary: MTT assay (cytotoxicity), Panc1
# Assay type: cell-based
# Condition: Homo sapiens, PANC-1, 72 h, drug concentration causing a 50% decrease in cell population
Endpoint Name: IC50

Answered examples (2):
Compound: COc1cc(-c2nc(-c3ccccc3)no2)c(-n2c(-c3ccccc3)noc2=O)cc1OC
IC50: > 30 µM
//
Compound: COc1cc(-c2nc(-c3ccc(Cl)cc3)no2)c(-n2c(-c3ccc(Cl)cc3)noc2=O)cc1OC
IC50: > 30 µM

// field: IC50; key: CC(=O)O[C@H]1C(=O)[C@@]2(C)[C@H]([C@H](OC(=O)c3ccccc3)[C@]3(O)C[C@H](OC(=O)[C@H](O)[C@@H](NC(=O)c4ccccc4)c4ccccc4)C(C)=C1C3(C)C)[C@]1(OC(C)=O)CO[C@@H]1C[C@@H]2O [Paclitaxel, reference compound] ; value = < 0.04 µM

The measured values listed here are drawn from patent US11214567B2.
